Experiment: soluble on expression in E. coli; label from the status in PepcDB or PDB records
measurement.label: soluble on expression in E. coli

- sequence.entry: "MTIGIIGSGALGSGIARILASKGISAIISNSRGPESLASLVRELGGSIKAGTAEEAARADIVFAAVRWVDAEKVLSSLPAWEGRIVIDATNPVEFIDPDSPDANDPTNPLAAYGIKAVDLHGKYSSEIFRQFVPGARVVKAFNHLDANVFSAPEVTGGKRVLFYSGDDAAAKTEVRKIIEDTGFVPVDLGTLDVGGPLASLPFGPLAAQNFIRVLEHHHHHH"
  result: "soluble"
- sequence.entry: "SDGPERDFNLKVVLISFKKCLTDKGEVLLDHYTASWKGLVRFLNSLGAVFSFISKDVVSKLQIMEHLRSGPQSEHYISLQSMVAYEVSNKLVDRDSRSRPRHPNSGCRTVLRLHRALHWLQLFLEGLRTSSEDARTSTLCSEAYNATLAAYHSWIVRQAVNVAFHALPPRKVFLEAMNMGSSEQAVEMLGEALPFIEQVYDISQKLYAEHSLLDLP"
  result: "soluble"

----------
Assay: soluble on expression in E. coli; label from the status in PepcDB or PDB records
measurement.label: soluble on expression in E. coli

- sequence.entry: "MRVLIVKTSSMGDVLHTLPALTDAQQAIPEIKFDWVVEEGFAQIPSWHAAVERVIPVAIRRWRKAWFSAPIKAERKAFREALQAENYDAVIDAQGLVKSAALVTRLAHGVKHGMDWQTAREPLASLFYNRKHHIAKQQHAVERTRELFAKSLGYSKPQTQGDYAIAQHFLTNLPTDAGEYAVFLHATTRDDKHWPEEHWRELIGLLADSGIRIKLPWGAPHEEERAKRLAEGFAYVEVLPKMSLEGVARVLAGAKFVVSVDTGLSHLTAALDRPNITVYGPTDPGLIGGYGENQVECRSTSMSLADLPAQTVFQNLNLEIITNKLTSEIR"
  result: "not soluble"
- sequence.entry: "GPGSMHASVVLNMCTASQYTRRTLQSLFERREVDLSALVHVLADNAGYLAATQQGCISLMRVFELCDAAQKAELVRELLPKLAALSMDAFANYMVQCAIEHSDRATAAQYVVAHFTGNILQMSCNKHSSNVLEVVLRCCGEVPAVRRLFLDELVFNPAALKEVVGDLYGNFVVQALIGVVTNPMEFKRVEDRLRPALVGCQFAAKIEGKIKAKRPVPPHAGGAVHHHSYPQSRQQRPLSVPCTMPDHVGPCAPSVRATIALPQAPVMSLGEARVPTQGYCHRPYDCNPLCCAPLAAEQQQPQNVVQAPSGHVYPVDHFQFPILKERTAARAAGAVPVTDGEDSGPVYGPSPAARRHLQQQQQQAFRPPFNIMC"
  result: "not soluble"

----------
Assay: soluble on expression in E. coli; label from the status in PepcDB or PDB records

- sequence.entry: "MGSDKIHHHHHHMTKARDDRYNFGFLDENTKRMLRRSLLKAVAIPGYQVPFGSREMPLPYGWGTGGIQLTASVIGRDDVLKVIDQGADDTTNAVNIRRFFGRVAGVATTTRTADATLIQTRHRIPETPLKPGQILIFQVPEPEPLRTLEASEVETRKLHAHQEYGLMHVKLYEDIARFGHIATSYDYPVMVNDRYLASPSPIPKFDNPKLDMNPALLLFGAGREKRLYAIPPYTKVESLAFDDHPFEIQSWQQGCAICGSHDSYLDEIVIDDAGSRMFVCSDTDYCQREKQA"
  soluble on expression in E. coli: "not soluble"
- sequence.entry: "MNTPHPSAPVLVAVANPTIHPEALHIVAATGRECIDTTDPREISRHAHRVAAMLVDATTAPHMASLPPNTRVMYLEPEPGPIDYEKAMKSGAELAVIVPAQSPELLKALGRRDVAPRAGKYPVIAVIGAAGGAGTSTLCAALAADYREALLIDTEHFSGGIDLLLGKEDDPGIRWDDVPDSGEKVPASELLASLPCVDPNVRILAATRDSVTHVAEQQLRGVVESVRGTCPIIIDVQRHHVLFESCVDLADLVVLLVPAEIRSVAAAAQLVPWLRRRKVDVVGVLRERAWASVDREEVARVTGADIVATVPTVKGLPREVELGGMATIPRALRRPLAQLRSHIDG"
  soluble on expression in E. coli: "not soluble"
- sequence.entry: "GMTDAPADAPLDADARRAVKPVICYPNDSLPRPDLALYRAARASARKTGEVLVPPREGRCFEVKAGQFFRISSVEGPQVGDLNLHNLHDLTERFFSGKTRALHGTHVTTGERLWSNLPYLRPMATIIEDTLGWYGIDQYGGSVHDVIGTRCDPYTGNLLAGGHYHHCCHSNLTRALADHTGLPLHEAEMLVHDVLNVFMCTGFTRDTGQYFMKASPVRPGDYLEFFAEIDLLGNLSACPGGDCSSEHSSDTASCHPLLVEIFAPAEGMLGDWPSPSVNGYDRSHGR"
  soluble on expression in E. coli: "soluble"
- sequence.entry: "GQVQLVESGPGLVAPSQSLSITCTVSGISLSRYNVHWVRQSPGKGLEWLGMIWGGGSIEYNPALKSRLSISKDNSKSQIFLKMNSLQTDDSAMYYCVSYGYGGDRFSYWGQGTLVTVS"
  soluble on expression in E. coli: "soluble"
- sequence.entry: "MLTQEQIDIIREGPDYFLESIWFRIGQLYGLSPGQIDHDSFEERKNDLFFLLGKLLDEGQIKIGNHKGNFISGPTPALVEMFRSSFPDSDEKAQAIWFITECPGGIVWVLKGQGEKGQDVYKWWLFKDEK"
  soluble on expression in E. coli: "not soluble"
- sequence.entry: "GPGSMTEHICASLVLTRGPEGLQRRLPVRLPLSGKPITIGRAIDNDVVLEMDLIFSSQWHCQMFAQKCEPETSERVEEREAASDPSRCEGRHVDCEGQTEIPVKEQYSLWLVDVGSSNGTFVNGIRVASSAPTPLHHGDVIVLGGMRDVEVGKSLPMEDLPLEIVTWRVAMEGKSEEGFGFVATPPVFLSMEFVISQARQRALGALQDSPDPKVSTTSPLKLPLKRMRHEQETGSNKLYDDGDVTPKRRIREVSYPSGEDRSGGELARRSGTVAAYLDPNEANAWEVTTNSSSDVASTTGLPCPSSKATASRGYCNSDALAEPTKEDARETRVAPAVARETVQ"
  soluble on expression in E. coli: "soluble"
- sequence.entry: "GSPGGSLFVALYDFVASGDNTLSITKGEKLRVLGYNHNGEWCEAQTKNGQGWVPSNYITPVS"
  soluble on expression in E. coli: "soluble"
